tested on: barnyardgrass (Echinochloa crus-galli, ECHCG); test: Post-emerge test, greenhouse herbicide activity screening; type: in vivo; conditions: post-emerge, 63 g ai/ha, 14 days after application, rating scale 0-100
ENDPOINT NAME: phytotoxicity rating ECHCG

query: Return value of phytotoxicity rating ECHCG for input COc1c(Cl)cc(F)c(-n2c(=O)cc(C(F)(F)F)n(C)c2=O)c1NC(=O)c1ccc2c(c1)OCO2 , no commentary.
result: 30

query: Return value of phytotoxicity rating ECHCG for input COc1c(Cl)cc(F)c(-n2c(=O)cc(C(F)(F)F)n(C)c2=O)c1NC(=O)Nc1ccccc1 , no commentary.
result: 0

query: Return value of phytotoxicity rating ECHCG for input COc1c(Cl)cc(F)c(-n2c(=O)cc(C(F)(F)F)n(C)c2=O)c1NC(=O)OCc1ccc(Cl)c(Cl)c1 , no commentary.
result: 0

query: Return value of phytotoxicity rating ECHCG for input COc1c(Cl)cc(F)c(-n2c(=O)cc(C(F)(F)F)n(C)c2=O)c1NC(=O)c1cccc2ccccc12 , no commentary.
result: 0

query: Return value of phytotoxicity rating ECHCG for input Cn1c(C(F)(F)F)cc(=O)n(-c2ccc(Cl)cc2NC(=O)Oc2ccccc2)c1=O , no commentary.
result: 0

query: Return value of phytotoxicity rating ECHCG for input Cn1c(C(F)(F)F)cc(=O)n(-c2ccc(Cl)cc2NC(=O)C2CC2)c1=O , no commentary.
result: 0

Look up phytotoxicity rating ECHCG for the entries below, preserving their order.
1. COc1c(Cl)cc(F)c(-n2c(=O)cc(C(F)(F)F)n(C)c2=O)c1NC(=O)C1CC1
2. COc1c(Cl)cc(F)c(-n2c(=O)cc(C(F)(F)F)n(C)c2=O)c1NC(=O)C=Cc1ccc(Cl)cc1

result:
0
0
